# assay_protocol: Tested for the ability to inhibit Ins(1,4,5)P 3-phosphatase
property_measured: pKi
Convention used: pKi is expressed as -log10 of the molar concentration.

// query Fill blank: measured pKi of the molecule OC1C(O)C(OP(O)(O)=S)C(OP(O)(O)=S)C(O)C1OP(O)(O)=S (stereo unspecified) is ____.
// result 3.01
